Molecular target: Apelin receptor (Homo sapiens)
Sequence (P35414 whole entry): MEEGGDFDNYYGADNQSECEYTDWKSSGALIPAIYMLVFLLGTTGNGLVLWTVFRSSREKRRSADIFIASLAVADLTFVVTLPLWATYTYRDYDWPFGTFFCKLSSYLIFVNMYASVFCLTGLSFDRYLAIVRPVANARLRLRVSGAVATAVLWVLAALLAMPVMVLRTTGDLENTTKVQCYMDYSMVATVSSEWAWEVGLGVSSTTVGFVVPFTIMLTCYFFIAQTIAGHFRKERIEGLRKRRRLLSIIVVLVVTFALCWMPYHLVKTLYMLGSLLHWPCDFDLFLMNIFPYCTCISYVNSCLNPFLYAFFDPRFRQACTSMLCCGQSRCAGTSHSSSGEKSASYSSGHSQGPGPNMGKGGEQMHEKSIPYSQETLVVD
Test: Activity at GFP10-tagged human APJ receptor expressed in HEK293 cells assessed as induction of RlucII-tagged beta-arrestin-2 recruitment after 30 mins by BRET assay
Assay type: cell-based
pEC50: −log10 of the molar value. Starred links: 1 amine or outer side, 2 acyl side, 3 side chain; linkers in the order of their positions; H or OH if unused. Positions of bridges follow the written chain, without caps; N, C: chain ends. Non-standard residues stand in square brackets, D forms with d. Residues, ends and D or L forms follow the SMILES beside them. X2 = N=C(N)NCCC[C@@H](C(=O)[*:2])N(CC=[*:3])[*:1]; AllylGly = C=CC[C@H](N)C(=O)O; pGlu = O=C1CC[C@@H](C(=O)O)N1; Nle = CCCC[C@H](N)C(=O)O
Think of 7 as a floor: if pEC50 stands on it or above, it is true; beneath it, false.

Reference set, count: 3
C=CC[C@H](NC(=O)[C@H](CCCNC(=N)N)NC(=O)[C@@H]1CCCN1C(=O)[C@H](CCCNC(=N)N)NC(=O)[C@@H](N)CC=C)C(=O)N[C@@H](CO)C(=O)N[C@@H](Cc1cnc[nH]1)C(=O)N[C@@H](CCCCN)C(=O)NCC(=O)N1CCC[C@H]1C(=O)N[C@@H](CCCC)C(=O)N1CCC[C@H]1C(=O)N[C@@H](Cc1ccccc1)C(=O)O : true
CC(C)C[C@H](NC(=O)[C@H](CCCNC(=N)N)NC(=O)[C@@H]1CCCN1C(=O)[C@H](CCCNC(=N)N)NC(=O)[C@@H]1CCC(=O)N1)C(=O)N[C@@H](CO)C(=O)N[C@H]1C/C=C\C[C@@H](C(=O)N2CCC[C@H]2C(=O)N[C@@H](Cc2ccccc2)C(=O)O)NC(=O)[C@@H]2CCCN2C(=O)CNC(=O)[C@H](CCCCN)NC1=O ([pGlu]RPRLS[AllylGly]KGP[AllylGly]PF-OH; staple (Z) 7-11) : false
C=CC[C@H](NC(=O)[C@H](CC(C)C)NC(=O)[C@H](CCCNC(=N)N)NC(=O)[C@@H]1CCCN1C(=O)[C@H](CCCNC(=N)N)N(CC=C)C(=O)[C@@H]1CCC(=O)N1)C(=O)N[C@@H](Cc1cnc[nH]1)C(=O)N[C@@H](CCCCN)C(=O)NCC(=O)N1CCC[C@H]1C(=O)N[C@@H](CCCC)C(=O)N1CCC[C@H]1C(=O)N[C@@H](Cc1ccccc1)C(=O)O : false

Input: Is pEC50 for `C=CC[C@H](NC(=O)[C@H](CO)NC(=O)[C@H](CC(C)C)NC(=O)[C@H](CCCNC(=N)N)NC(=O)[C@H](CC=C)NC(=O)[C@H](CCCNC(=N)N)NC(=O)[C@@H]1CCC(=O)N1)C(=O)N[C@@H](CCCCN)C(=O)NCC(=O)N1CCC[C@H]1C(=O)N[C@@H](CCCC)C(=O)N1CCC[C@H]1C(=O)N[C@@H](Cc1ccccc1)C(=O)O` at or above 7?
Output: false

Input: Try C=CC[C@H](NC(=O)[C@H](Cc1cnc[nH]1)NC(=O)[C@H](CO)NC(=O)[C@H](CC(C)C)NC(=O)[C@H](CCCNC(=N)N)NC(=O)[C@@H]1CCCN1C(=O)[C@H](CCCNC(=N)N)NC(=O)[C@@H]1CCC(=O)N1)C(=O)NCC(=O)N1CCC[C@H]1C(=O)N[C@@H](CCCC)C(=O)N[C@@H](CC=C)C(=O)N[C@@H](Cc1ccccc1)C(=O)O ([pGlu]RPRLSH[AllylGly]GP[Nle][AllylGly]F-OH) next.
Output: true

Input: Record: C=CC[C@H](NC(=O)[C@H](CO)NC(=O)[C@H](CC(C)C)NC(=O)[C@H](CCCNC(=N)N)NC(=O)[C@@H]1CCCN1C(=O)[C@H](CCCNC(=N)N)NC(=O)[C@@H]1CCC(=O)N1)C(=O)N[C@@H](CCCCN)C(=O)NCC(=O)N1CCC[C@H]1C(=O)N[C@@H](CC=C)C(=O)N1CCC[C@H]1C(=O)N[C@@H](Cc1ccccc1)C(=O)O ([pGlu]RPRLS[AllylGly]KGP[AllylGly]PF-OH)
Output: true

Input: Another molecule: CCCC[C@@H]1NC(=O)[C@@H]2CCCN2C(=O)CNC(=O)[C@@H](NC(=O)[C@H](Cc2cnc[nH]2)NC(=O)[C@H](CO)NC(=O)[C@H](CC(C)C)NC(=O)[C@H](CCCNC(=N)N)NC(=O)[C@@H]2CCCN2C(=O)[C@H](CCCNC(=N)N)NC(=O)[C@@H]2CCC(=O)N2)C/C=C\C[C@@H](C(=O)N[C@@H](Cc2ccccc2)C(=O)O)NC1=O ([pGlu]RPRLSH[AllylGly]GP[Nle][AllylGly]F-OH; staple (Z) 8-12)
Output: false

Input: // repeat for `CCCC[C@@H]1NC(=O)[C@@H]2CCCN2C(=O)[C@@H](NC(=O)[C@H](CCCCN)NC(=O)[C@H](Cc2cnc[nH]2)NC(=O)[C@H](CO)NC(=O)[C@H](CC(C)C)NC(=O)[C@H](CCCNC(=N)N)NC(=O)[C@@H]2CCCN2C(=O)[C@H](CCCNC(=N)N)NC(=O)[C@@H]2CCC(=O)N2)CCN(S(=O)(=O)c2ccccc2[N+](=O)[O-])C/C=C\C[C@@H](C(=O)O)NC(=O)[C@@H]2CCCN2C1=O` and report
Output: true

Input: What do you get for `CCCC[C@H](NC(=O)[C@@H]1CCCN1C(=O)CNC(=O)[C@H](CCCCN)NC(=O)[C@H](Cc1cnc[nH]1)NC(=O)[C@H](CO)NC(=O)[C@@H]1C/C=C\C[C@H](N)C(=O)N[C@@H](CCCNC(=N)N)C(=O)N2CCC[C@H]2C(=O)N[C@@H](CCCNC(=N)N)C(=O)N1)C(=O)N1CCC[C@H]1C(=O)N[C@@H](Cc1ccccc1)C(=O)O` ?
Output: false

Input: Another molecule to check: CCCC[C@H](NC(=O)[C@@H]1CCCN1C(=O)CNC(=O)[C@@H]1C/C=C\CN(C(=O)[C@@H]2CCCN2C(=O)[C@H](CCCNC(=N)N)NC(=O)[C@@H]2CCC(=O)N2)[C@@H](CCCNC(=N)N)C(=O)N[C@@H](CC(C)C)C(=O)N[C@@H](CO)C(=O)N[C@@H](Cc2cnc[nH]2)C(=O)N1)C(=O)N1CCC[C@H]1C(=O)N[C@@H](Cc1ccccc1)C(=O)O ([pGlu]RP[X2]LSH[AllylGly]GP[Nle]PF-OH; staple (Z) 4-8)
Output: false
